# tested system: 1ptase D54A (aspartate to alanine) (Bos taurus, UniProt P21327, D54A)
# Sequence (P21327 1-400 D54A): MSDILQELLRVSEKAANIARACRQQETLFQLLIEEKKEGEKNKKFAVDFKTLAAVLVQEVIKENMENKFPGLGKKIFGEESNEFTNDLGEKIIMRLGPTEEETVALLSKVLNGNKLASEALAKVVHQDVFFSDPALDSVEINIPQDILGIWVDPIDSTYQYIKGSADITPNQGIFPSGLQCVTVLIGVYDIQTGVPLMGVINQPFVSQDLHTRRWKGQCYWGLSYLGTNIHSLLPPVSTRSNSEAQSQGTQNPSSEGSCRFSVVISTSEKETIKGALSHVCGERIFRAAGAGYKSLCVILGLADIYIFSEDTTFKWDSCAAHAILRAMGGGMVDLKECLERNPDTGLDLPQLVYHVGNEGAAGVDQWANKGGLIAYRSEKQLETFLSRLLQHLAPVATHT
# method notes: Lithium inhibition of 1ptase D54A mutant
measured endpoint: Ki (mM)

• [Li] = 100
